# system: 26S Proteasome Complex (Oryctolagus cuniculus, UniProt G1T4Q9)
# Sequence (G1T4Q9 1-263, one chain of several): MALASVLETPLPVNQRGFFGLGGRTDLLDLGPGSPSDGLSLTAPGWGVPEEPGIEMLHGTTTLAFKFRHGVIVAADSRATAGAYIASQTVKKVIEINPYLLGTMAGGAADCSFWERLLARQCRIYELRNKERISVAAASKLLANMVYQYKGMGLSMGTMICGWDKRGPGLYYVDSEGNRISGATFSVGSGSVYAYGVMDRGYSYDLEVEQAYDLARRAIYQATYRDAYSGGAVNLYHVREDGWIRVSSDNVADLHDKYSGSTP
# protocol description: MG 101 inhibition of muscle 26S proteasome complex (Table IV)
# condition parameters: enzyme preparation: 26S Proteasome Complex (muscle)
Non-standard residues stand in square brackets, D forms with d. Residues, ends and D or L forms follow the SMILES beside them. Nle = CCCC[C@H](N)C(=O)O
measured attribute: pKi
Please note pKi is a logarithmic value: minus log10 of concentration in mol/L. Answer with that number alone.

Query :: Quick one: pKi of CCCC[C@@H](C=O)NC(=O)[C@H](CC(C)C)NC(=O)[C@H](CC(C)C)NC(C)=O [MG 101, Ac-Leu-Leu-Nle-H] (Ac-Leu-Leu-[Nle]-aldehyde) ?
Result :: 5.52
